Cited source: paper PMC11171218

study-target: UniProtKB P49759
Sequence (P49759 whole entry): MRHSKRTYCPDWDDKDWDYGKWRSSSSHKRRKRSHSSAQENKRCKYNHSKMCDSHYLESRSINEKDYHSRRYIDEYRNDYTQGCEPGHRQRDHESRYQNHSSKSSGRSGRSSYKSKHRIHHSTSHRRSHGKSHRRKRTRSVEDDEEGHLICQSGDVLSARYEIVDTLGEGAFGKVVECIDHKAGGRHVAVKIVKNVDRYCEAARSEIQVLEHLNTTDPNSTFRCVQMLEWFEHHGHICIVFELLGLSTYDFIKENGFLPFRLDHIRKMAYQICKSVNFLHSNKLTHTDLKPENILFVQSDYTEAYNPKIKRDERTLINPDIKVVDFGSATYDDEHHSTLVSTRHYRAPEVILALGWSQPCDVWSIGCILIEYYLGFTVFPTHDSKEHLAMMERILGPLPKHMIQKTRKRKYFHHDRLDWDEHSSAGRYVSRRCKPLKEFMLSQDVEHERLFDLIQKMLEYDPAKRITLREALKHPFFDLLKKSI
protocol: Z'-LYTE kinase inhibition assay, Clk1
Assay type: biochemical
assay-setup: read-out: Clk1 % Inh. At 1 µM
result-type: inhibition at 1 µM (%)
Record the value in %, omitting the unit from your answer.

See these solved cases before continuing.
INSERT INTO measurements (smiles_entry, reported_value) VALUES
  ('COc1ccc(CNC(=O)c2cc3cc(O)ccc3s2)cc1OC', 18),
  ('O=C(NCc1ccco1)c1cc2cc(O)ccc2s1', 61);

Inquiry: State, for UniProtKB P49759, measured inhibition at 1 µM of the compound listed here: "Cc1cc(C)cc(CNC(=O)c2cc3cc(O)ccc3s2)c1"
Reply text: 53
